- Test system: Pasteurella multocida PM 12080 (IV102277-0093, BRD field isolate)
- assayText: MIC, broth-microdilution (CLSI VET01-A4)
- Assay type: cell-based
- testParameters: Pasteurella multocida PM 12080; read-out: MIC PM 12080
MIC values by entry
// units = µM; emit number, no label

Reference set, count: 3
Cc1cnc(CNCc2ccc(C#Cc3ccc(C(=O)NC(C(=O)NO)C(C)(C)N)cc3)s2)o1 (racemic) [Compound 636]; 0.4
C=CCNCc1ccc(C#Cc2ccc(C(=O)N[C@H](C(=O)NO)[C@@H](C)O)cc2)cn1 [C. 415]; 0.4
CC(C)C(NC(=O)c1ccc(C#Cc2ccc(CNCc3ccco3)cc2)cc1)C(=O)NO (centres unmarked) [Compound 290]; 0.2

// next item, MIC requested
// returns reported MIC for input COc1ccc(CNCc2ccc(C#Cc3ccc(C(=O)NC(C(=O)NO)C(C)(C)N)cc3)cc2)cc1 (centres unmarked) [Compound 513]
0.2
